Molecular target: Amine oxidase [flavin-containing] A (Rattus norvegicus, UniProt P21396)
Sequence (P21396 whole entry): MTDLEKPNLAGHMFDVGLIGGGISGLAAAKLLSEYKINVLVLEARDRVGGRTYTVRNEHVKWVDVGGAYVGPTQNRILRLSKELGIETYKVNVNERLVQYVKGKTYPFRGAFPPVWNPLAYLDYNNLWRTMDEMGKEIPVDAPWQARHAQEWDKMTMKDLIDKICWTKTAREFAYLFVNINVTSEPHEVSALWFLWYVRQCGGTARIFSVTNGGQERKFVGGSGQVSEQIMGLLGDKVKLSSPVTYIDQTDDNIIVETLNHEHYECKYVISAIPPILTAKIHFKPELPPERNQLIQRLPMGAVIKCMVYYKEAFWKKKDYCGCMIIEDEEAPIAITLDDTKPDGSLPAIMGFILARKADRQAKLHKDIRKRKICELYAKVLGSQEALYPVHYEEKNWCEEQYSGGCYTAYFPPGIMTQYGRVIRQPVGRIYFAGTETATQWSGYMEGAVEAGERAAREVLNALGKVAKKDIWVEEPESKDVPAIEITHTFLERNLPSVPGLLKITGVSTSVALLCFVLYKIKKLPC
pIC50: −log10 of the molar value.
Amine oxidase [flavin-containing] A (Rattus norvegicus, UniProt P21396) pIC50, compiled from various sources.
MEASURED_ENDPOINT: pIC50

COMPOUND: NCc1cc(=O)oc2cc(OS(=O)(=O)c3cccc(Cl)c3)ccc12
STUDY_SYSTEM: Amine oxidase [flavin-containing] A (Rattus norvegicus, UniProt P21396)
MEASURED_NUMBER: 6.00
//
COMPOUND: CCNCc1cc(=O)oc2cc(OCc3cccc(F)c3)ccc12
STUDY_SYSTEM: Amine oxidase [flavin-containing] A (Rattus norvegicus, UniProt P21396)
MEASURED_NUMBER: 4.65
//
COMPOUND: N#CCCn1nc(-c2ccc(-c3ccccc3)cc2)oc1=O
STUDY_SYSTEM: Amine oxidase [flavin-containing] A (Rattus norvegicus, UniProt P21396)
MEASURED_NUMBER: 5.11
//
COMPOUND: Cc1ccc(C2CC(c3ccccc3)=NN2c2nc3ccccc3c(=O)n2C)cc1 (stereo unspecified)
STUDY_SYSTEM: Amine oxidase [flavin-containing] A (Rattus norvegicus, UniProt P21396)
MEASURED_NUMBER: 5.35

A = Cc1ccc(/C=C/C(=N/Nc2nc3ccccc3c(=O)n2C)c2ccccc2)cc1
B = Cc1cc(=O)oc2cc(OCc3cccc(Cl)c3)ccc12
C = S=C(Nc1ccccc1)N1NC2=C(CCCC2)C1c1cccs1 (stereo unspecified)
D = Clc1ccc(Cc2nc3ccccc3nc2NCCN2CCOCC2)cc1
E = O=C1CCc2ccc(OCc3ccccc3)cc2N1
**Query** Which order do these items take when sorted by rising pIC50? List them. Please list the labels in the order you were asked to rank them.
**Result** E, A, B, C, D
(E: 3.99, A: 4.52, B: 5.28, C: 6.15, D: 8.77)

====

pIC50: −log10 of the molar value.
UniProt:P21396 pIC50, compiled from various sources.
MEASURED_ENDPOINT: pIC50

Below, 5 molecules whose answers are already recorded.
MOLECULE: CN1CCN(C(=O)/C=C/C=C/c2ccc3c(c2)OCO3)CC1
STUDY_SYSTEM: UniProt:P21396
MEASURED_NUMBER: 5.69

MOLECULE: O=C(/C=C/c1ccc(O)cc1)c1ccc(O)cc1O
STUDY_SYSTEM: UniProt:P21396
MEASURED_NUMBER: 4.86

MOLECULE: CNC(=O)/C=C1/COc2cc(OS(=O)(=O)c3ccc(Cl)s3)ccc21
STUDY_SYSTEM: UniProt:P21396
MEASURED_NUMBER: 7.80

MOLECULE: CCc1cccc2c1S(=O)(=O)c1ccccc1O2
STUDY_SYSTEM: UniProt:P21396
MEASURED_NUMBER: 7.46

MOLECULE: NC(=O)[C@@H]1CCCN1c1cc(=O)oc2cc(OCc3ccccc3)ccc12
STUDY_SYSTEM: UniProt:P21396
MEASURED_NUMBER: 4.00

A = CC(C(N)=O)c1cc(=O)oc2cc(OCc3cccc(F)c3)ccc12 (racemic)
B = CN(C)C(=O)Cc1cc(=O)oc2cc(OCc3ccccc3)ccc12
**Query** Problem: Given the entries A and B , determine which has the lower reported pIC50. Please indicate the selected item by its label.
**Result** B
(B: 4.64, A: 5.70)

P = NCc1cc(=O)oc2cc(OCc3cccc(Cl)c3)ccc12
Q = COC(=O)CCCNC(=O)c1ccc(NC(=O)C(=O)c2ccccc2NC(C)=O)cc1
**Query** Problem: Given the entries P and Q , determine which has the lower reported pIC50. Please indicate the selected item by its label.
**Result** P

1 = Oc1ccccc1C1=NN(C(=S)Nc2ccccc2)C(c2ccccc2)C1 (centres undefined)
2 = CN(C)CCc1cc(=O)oc2cc(OCc3ccccc3)ccc12
3 = O=C1c2ccccc2-c2nnc(-c3cc(C(F)(F)F)cc(C(F)(F)F)c3)cc21
4 = COC(=O)CCCNC(=O)C(=O)c1ccccc1NC(C)=O
5 = NC(=O)CNCc1ccc(OCc2cccc(F)c2)cc1
**Query** Which order do these items take when sorted by rising pIC50? List them. Please list the labels in the order you were asked to rank them.
**Result** 1, 2, 5, 3, 4
(1: 4.31, 2: 4.59, 5: 4.87, 3: 6.00, 4: 7.21)
